- assayExplanation: Microsomal stability in human liver microsomes assessed as intrinsic clearance
- Assay type: ADME, Microsome
- setupConditions: read-out: CLH
measuredEndpoint: microsomal CLint (µL/min/mg)
Numbers only, in µL/min/mg.

The recorded microsomal CLint for entry CNC(=O)C1CN(C(=O)c2onc3ccccc23)CC12CCN(C(=O)c1noc3ccccc13)CC2 (stereo unspecified) equals 25.6

###

- targetOrTestSystem: P2Y purinoceptor 14 (Homo sapiens, UniProt Q15391)
- Sequence (Q15391 whole entry): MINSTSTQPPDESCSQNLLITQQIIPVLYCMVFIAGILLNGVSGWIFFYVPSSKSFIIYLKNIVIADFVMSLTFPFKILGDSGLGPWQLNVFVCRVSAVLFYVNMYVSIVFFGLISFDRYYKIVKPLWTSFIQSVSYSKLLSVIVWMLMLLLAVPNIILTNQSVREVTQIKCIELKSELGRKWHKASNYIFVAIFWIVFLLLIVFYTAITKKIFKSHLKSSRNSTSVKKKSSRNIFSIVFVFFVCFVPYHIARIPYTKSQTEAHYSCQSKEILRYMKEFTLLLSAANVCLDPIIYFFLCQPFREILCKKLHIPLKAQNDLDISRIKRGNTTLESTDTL
- assayExplanation: Antagonist activity at P2Y14 receptor (unknown origin) stably expressed in HEK293 cells assessed as inhibition of forskolin-induced intracellular cAMP production incubated for 30 mins in presence of UDPG by Camp-Glo kit assay
measuredEndpoint: IC50 (nM)
One number for each entry, in nM.

The recorded IC50 for entry CNC(=O)C1CN(C(=O)c2onc3ccccc23)CC12CCN(C(=O)c1noc3ccccc13)CC2 (stereo unspecified) equals 23.6

Values were extracted from ChEMBL document CHEMBL6134822.
